- System: human peripheral blood mononuclear cells (hPBMCs)
- assay_notes: Cytokine induction in human peripheral blood mononuclear cells
- Type: cell-based
- experimental_setup: PBMC, hPBMC, 24 hours, CBA, TLR8 pathway cytokine, read-out: IL-12p40 EC50
Structures can show the parent of a compound that is named as a salt.
value_type: EC50 (nM)

INSERT INTO assay_data (compound, subject_of_test, value_type, quantitative_result) VALUES
  ('CCCC[C@](C)(Cc1ncn[nH]1)Nc1nc(N)nc2cnccc12 [Hydrochloride of Example 1]', 'human peripheral blood mononuclear cells (hPBMCs)', 'EC50', 26);

----------
- Test system: human peripheral blood mononuclear cells (hPBMCs)
- assay_notes: Cytokine induction in human peripheral blood mononuclear cells
- Type: cell-based
- experimental_setup: PBMC, hPBMC, 24 hours, ELISA, TLR7 pathway cytokine, read-out: IFN-α EC50
pEC50: −log10 of the molar value. Structures can show the parent of a compound that is named as a salt.
value_type: pEC50

INSERT INTO measurements (molecule, value_type, quantitative_result) VALUES
  ('CCCC[C@](C)(Cc1ncn[nH]1)Nc1nc(N)nc2cnccc12 [Hydrochloride of Example 1]', 'pEC50', 5.55);
